# assay-explanation: Ratio of IC50 for dark toxicity in human Melanocytes to IC50 for phototoxicity in human Melanocytes in presence of UVA at 320 to 400 nm
# Type: cell-based, Melanocyte
# run-conditions: read-out: Ratio IC50
For each record, write down the corresponding selectivity ratio.

Answered cases to consult:
1) Cc1cc(N2C[C@H]3CC[C@@H](C2)[C@@H]3Nc2nc3c(OCC(F)(F)F)cccn3n2)sn1: 1
2) Cc1nsc(N2CC3CCC(C2)C3Nc2nc3c(-c4ccc(F)c(F)c4F)cccn3n2)n1 (stereo not drawn): 22.9 to 23

Quick check: selectivity ratio of Cc1nsc(N2C[C@H]3CC[C@@H](C2)[C@@H]3Nc2nc3c(OCC(F)(F)F)cccn3n2)n1 ?
1.1
